Target: HIV protease (Human immunodeficiency virus type 1 group M subtype B, UniProt P04585)
Construct: and purified protease
Assay: HIV Protease Assay
Format: biochemical
Conditions: pH 5.5, 10 μM inhibitor, 4% DMSO, 450 μM substrate, pH 5.5, 30 minutes at 37° C., RP-HPLC; read-out: HIV Protease % Inhibition at 10 μM
MEASURE: inhibition at 10 µM (%)

Take a look at these entries with their results.
* CC(C)(C)OC(=O)N[C@@H](Cc1ccccc1)[C@H](O)CNC[C@@H](O)[C@H](Cc1ccccc1)NC(=O)OC(C)(C)[C@@H](O)CO | 99
* CC(C)(C)OC(=O)N[C@@H](Cc1ccccc1)C(=O)CNC[C@@H](O)[C@H](Cc1ccccc1)NC(=O)OC(C)(C)C | 66
* CC(C)OC(=O)N[C@@H](Cc1ccccc1)[C@H](O)CNC[C@@H](O)[C@H](Cc1ccccc1)NC(=O)OC(C)C | 65
* CC(C)(C)OC(=O)N[C@@H](Cc1ccccc1)[C@H](O)CNC[C@@H](O)[C@H](Cc1ccccc1)NC(=O)COc1cccc2ccccc12 | 53
* CC(C)(C)CS(=O)(=O)N[C@@H](Cc1ccccc1)[C@H](O)CNC[C@@H](O)[C@H](Cc1ccccc1)NC(=O)OC(C)(C)C | 46

(A) CC(C)[C@@H](NC(=O)OCc1ccccc1)C(=O)N[C@@H](Cc1ccccc1)[C@H](O)CNC[C@@H](O)[C@H](Cc1ccccc1)NC(=O)OC(C)(C)C
(B) CC(C)(C)OC(=O)N[C@@H](Cc1ccccc1)[C@H](O)CNC[C@@H](O)[C@H](Cc1c[nH]c2ccccc12)NC(=O)OC(C)(C)C
[Q] Param pair: A , B . Output: the one whose inhibition at 10 µM is numerically greater. Give the label of your selection.
[A] B
(B: 98%, A: 58%)
